B1: glmS ribozyme (parent)
chain: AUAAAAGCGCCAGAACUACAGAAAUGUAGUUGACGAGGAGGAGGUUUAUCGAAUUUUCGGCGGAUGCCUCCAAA

variants of: B1; assay: self-cleavage kobs at 2500 uM GlcN6P; higher = faster cleavage; RNA array; conditions: with glucosamine-6-phosphate
Variants at the floor of the assay were thinned out.
endpoint: self-cleavage kobs at 2500 uM GlcN6P (s⁻¹)
Numbers only, in s⁻¹.

Ask: Would you kindly share the measured self-cleavage kobs at 2500 uM GlcN6P for AUAAAAGCGCCAGAACUACAGAAAUGUAGUUGACGAGGAGGAGGUUUAUCGAAUUUUCGGCGGAUGCCUGGAAA [C70G C71G] ?
Reply: 3.62e-05

Ask: Quick check: self-cleavage kobs at 2500 uM GlcN6P of AUAAAAGCGCCAGAACUACAGAAAUGUAGAUGACGAGGAGGAGGUUUAUCGAAUAUUCGGCGGAUGCCUCCAAA [U30A U55A] ?
Reply: 0.00803

Record self-cleavage kobs at 2500 uM GlcN6P for all entries; do not skip any.
1. AUAAAAGCGCCAGAACUACAGAAAUGUAGUAGACGAGGAGGAGGUUUAUCGAAUUUUCGGCGGAUGCCGCCAAA [U31A U69G]
2. AUAAAAGCGCCAGAACUACAGAAAUGUAGUUGACGAGGAGGAGGUUUAUCGAGUUUUCGGCGGAUGCCCCCAAA [A53G U69C]
3. AUAAAAGCGCCAGGAGUACAGAAAUGUAGUUGACGAGGAGGAGGUUUAUCGAAUUUUCGGCGGAUGCCUCCAAA [A14G C16G]
4. AUAAAAGCGCCAUAACUACAGAAAUGUAGUUGACGAGGAGGAGGUUUAUCGAAUUUUCGGCGGAUGCCUCCAAA [G13U]
5. AUAAAAGCGCCAGAACUACAGAAAUGUAGUUGACGACGAGGAGGUUUAUCGAAUUUUCGGCGGAUGUCUCAAAA [G37C C67U C71A]
6. AUAAAAGCGCCAGAACUACAGAAAUGUAGUUGACGAGGAGGAGGUUUAUCGAAUUUUCGGCGGAUGCCUUGAAA [C70U C71G]

Reply:
1: 5.62e-05; 2: 0.002; 3: 0.00397; 4: 0.00118; 5: 5.9e-05; 6: 0.000118

Provide each entry's self-cleavage kobs at 2500 uM GlcN6P from the list below.
1. AUAAAAGCGCCAGAACUACAGAAAUGUAGUUGACGAGGAGGAGGUUUAUCGCAUUUCCGGCGGAUGCCUCCAAA [A52C U57C]
2. AUAAAAGCGCCAGAACUACAGAAAUGUAGUUGACGAGGAGGAGGUUUAUCGAAUUUACGGCGGAUACCUCCAAA [U57A G66A]
3. AUAAAAGCGCCAGAACUACAGAAAUGUAUUUGACGAGGAGGAGGUUUAUCGAAUUUUCGGCGGAUGACACCAAA [G29U C67A U69A]
4. AUAAAAGCGCCAGAACUACAGAAAUGUAGUUGACGAGGAGUAGGUUUAUCGAAUUUUCGGCGGAUACCUCCAAA [G41U G66A]

Reply:
4.64e-05
6.97e-05
0.000106
0.00141
